System: OVCAR-8 ovarian
assay.details: NCI tumour cell line growth inhibition, 48 h; in the data active means GI50 below about 0.43 µM; inactive means the rest
Respond only with the outcome that fits, drawn from 1.0 = active, 0.0 = inactive

Recorded results for 2 molecules are shown here.
>  <molecule>
Cn1c(I)c(C#C[Si](C)(C)C)c(=O)n(C(=O)c2ccccc2)c1=O

>  <class.name>
0.0

$$$$
>  <molecule>
Cc1ccc(/C(=N/Nc2ccc([N+](=O)[O-])cc2)Sc2cc(Cl)c(C)cc2S(N)(=O)=O)cc1

>  <class.name>
0.0

$$$$

Task: # outcome recorded in this test, key = COc1cc(C2CC(c3ccc(Nc4nc(NCCO)nc(NCCO)n4)cc3)=NN2c2cc(Cl)cc(Cl)c2)cc(OC)c1OC (configuration not stated)
Output: 0.0

###

Tested on: SF-295 CNS
assay.details: NCI tumour cell line growth inhibition, 48 h
property: GI50

>  <compound>
CC(C)(C)C[C@H]1N[C@@H](C(=O)NC2CCC(O)CC2)[C@H](c2cccc(Cl)c2F)[C@@]12C(=O)Nc1cc(Cl)ccc12 (some centres undefined)

>  <GI50>
3.46 µM

$$$$
>  <compound>
O=C1NC(=NCCc2ccc(Cl)cc2)S/C1=C\c1ccc2ncccc2c1

>  <GI50>
24.4 µM

$$$$
>  <compound>
CCOC(=O)Nc1ccc2nc(-c3cscn3)[nH]c2c1

>  <GI50>
4.78 µM

$$$$
>  <compound>
Cc1cccc(N2C(=O)/C(=C/C(Cl)=C/c3ccc([N+](=O)[O-])cc3)SC2=S)c1C

>  <GI50>
2.28 µM

$$$$
>  <compound>
Cn1c(COC(=O)NCCc2ccccn2)nc2c(N3CCOCC3)nc(Cl)nc21

>  <GI50>
6.73 µM

$$$$

Look up GI50 for the entries below, preserving their order.
1. CSc1nc(Nc2cccc(NC(=O)CCl)c2)c(C#N)c(-c2cccc([N+](=O)[O-])c2)n1
2. CCOC(=O)NC(=S)N(CC(=O)c1cc(OC)c(OC)c(OC)c1)c1ccc(Cl)cc1
3. C[C@@]1(F)[C@H](O)[C@@H](CO)O[C@H]1n1ccc(=O)[nH]c1=O

Output:
1. 9.83 µM
2. 76.7 µM
3. > 100 µM

Look up GI50 for the entries below, preserving their order.
1. O=C(Nc1n[nH]c2cc(-c3cc(F)ccc3F)ccc12)C1CC1
2. COc1cc2c(cc1OCCNC(=O)/C=C1\C[C@H]3C=Nc4cc(OCc5ccccc5)c(OC)cc4C(=O)N3C1)N=C[C@@H]1CCCN1C2=O

Output:
1. 16.9 µM
2. 18.3 µM

Look up GI50 for the entries below, preserving their order.
1. O=C(Nc1sc2c(c1C(=O)O)CCCC2)c1ccco1
2. NC(N)=N/N=C\c1ccc(OCc2ccccc2)cc1
3. Cn1c(I)c(C#C[Si](C)(C)C)c(=O)n(C(=O)c2ccccc2)c1=O
4. CCCCNC(c1ccc(Cl)cc1)C(O)c1ccc(Cl)cc1 (centres undefined)

Output:
1: 26.3 µM; 2: 2.25 µM; 3: 21.5 µM; 4: 1.02 µM

###

Tested on: CCRF-CEM leukemia
assay.details: NCI tumour cell line growth inhibition, 48 h; in the data active = GI50 below about 0.43 µM; inactive = the rest
Respond only with the outcome that fits, drawn from active, inactive

Recorded results for 2 molecules are shown here.
>  <smiles.entry>
COc1ccc2[nH]c(C(=O)N3CCN(C(=O)OCc4ccc5c(Cl)cc(Cl)c(O)c5n4)CC3)cc2c1

>  <class.name>
active

$$$$
>  <smiles.entry>
CC(=O)[CH-]C(C)=O.CC(=O)[CH-]C(C)=O.[O-]c1ccccc1.[O-]c1ccccc1.[Ti+4]

>  <class.name>
inactive

$$$$

Then there is this molecule:
Task: # outcome recorded in this test, key = `Cn1c(COC(=O)NCCn2ccnc2)nc2c(N3CCOCC3)nc(-c3ccccc3)nc21`
Output: active

###

Test system: SNB-75 CNS
assay.details: NCI tumour cell line growth inhibition, 48 h
property: GI50

>  <smiles.entry>
O=C1NC(=NCCc2ccc(Cl)cc2)S/C1=C\c1ccc2ncccc2c1

>  <reading>
6.77 µM

$$$$
>  <smiles.entry>
CN(C)CCC(=O)Nc1ccc(-n2cc(-c3cccc(NC(=S)Nc4cccc(-c5cn(-c6ccc(NC(=O)CCN(C)C)cc6)nn5)c4)c3)nn2)cc1

>  <reading>
25.6 µM

$$$$
>  <smiles.entry>
CCCC(=O)O[C@]1(C)CC[C@@H]2[C@H]3[C@@H]1[C@@H]1C[C@@](C)(O)[C@H](OC)CC[C@](C)(OC(=O)[C@@H]2C)[C@H]3O1

>  <reading>
16.3 µM

$$$$

Moving on to another compound below.
The measured GI50 associated with `Nc1cc2c3c(cccc3c1)C(=O)N(CCN1CCCC1)C2=O` reads 3.4 µM

###

System: 786-0 renal
assay.details: NCI tumour cell line growth inhibition, 48 h
property: TGI (µM)
One number for each entry, in µM.

>  <molecule>
OCc1ccc(N(Cc2ccc(F)cc2)Cc2ccc(F)cc2)cc1Cl

>  <TGI, µM>
25.5

$$$$
>  <molecule>
CC1=NN(c2cccc(Cl)c2)C(=O)/C1=C\c1cn(CC(O)CN2CCCCC2)c2ccccc12 (stereo not given)

>  <TGI, µM>
20.8

$$$$

Moving on to another molecule below.
The measured TGI associated with CC(C)(C)C1CCC2c3c([nH]c4ccccc34)C3C(=O)N(c4ccc([N+](=O)[O-])cc4)C(=O)C3C2C1 (stereo not given) reads 18.9

###

System: NCI-H226 lung
assay.details: NCI tumour cell line growth inhibition, 48 h
Provide the recorded TGI for the entries that follow.

Please review the following examples before continuing.
>  <molecule>
C=CCC(O[Si](C)(C)C(C)(C)C)c1cc(O[Si](C)(C)C(C)(C)C)ccc1OC (stereo unspecified)

>  <property>
TGI

>  <reading>
> 100 µM

$$$$
>  <molecule>
FC1=C2C3CCC(C3)C2C1(F)F (stereo unspecified)

>  <property>
TGI

>  <reading>
> 100 µM

$$$$
>  <molecule>
N#C/C(=C\c1ccc2[nH]ccc2c1)C(=O)NCCCCNC(=O)/C(C#N)=C/c1ccc2[nH]ccc2c1

>  <property>
TGI

>  <reading>
> 31.6 µM

$$$$
>  <molecule>
Cc1cc(Cl)ccc1NC(=O)CCCC(=O)C1C/C(=N/O)CC/C1=N\O (stereo unspecified)

>  <property>
TGI

>  <reading>
> 100 µM

$$$$
>  <molecule>
CC(O)c1nc(C#N)c(N)o1 (stereo unspecified)

>  <property>
TGI

>  <reading>
> 100 µM

$$$$

Look up TGI for the entries below, preserving their order.
1. CC1(C)CC(C)(C)c2cc(NC(=S)Nc3ccc([N+](=O)[O-])cc3)ccc2S1
2. NC(N)=N/N=C\c1ccc(OCc2ccccc2)cc1
3. CC(=O)N1[C@H](C(=O)O)CS[C@H]1c1ccc(F)cc1
4. CCCCCC[C@H]([C@H](C)O)n1cnc2c(N)ncnc21
5. C[C@@]1(F)[C@H](O)[C@@H](CO)O[C@H]1n1ccc(=O)[nH]c1=O
6. CC1CCC2C(C)C(=O)OC2C2(C)C(=O)C=CC12 (stereo unspecified)
7. CC1=NN(C(=O)CC(=O)Nc2cccc(C)c2)C(=O)C1N=Nc1ccc(S(=O)(=O)CCOS(=O)(=O)O)cc1 (stereo unspecified)
8. C/C(=C1\N=C(c2ccccc2)OC1=O)c1ccccc1

Output:
38.5 µM
24.2 µM
> 100 µM
> 100 µM
> 100 µM
> 10 µM
6.79 µM
> 100 µM

Look up TGI for the entries below, preserving their order.
1. Cc1c(C)c([N+](=O)[O-])c2c(c1N)C(=O)c1ccccc1C2=O
2. COc1cc(C2CC(c3ccc(Nc4nc(NCCO)nc(NCCO)n4)cc3)=NN2c2cc(Cl)cc(Cl)c2)cc(OC)c1OC (stereo unspecified)
3. Clc1ccccc1C(Nc1cnccn1)Nc1cnccn1
4. COc1cc(O)ccc1C(=S)SC
5. Cc1nc2c(Br)cc(Br)cc2c(=O)n1-c1ccccc1NC1OC(CO)C(O)C(O)C1O (stereo unspecified)
6. O=C(Nc1ccccc1)N1CCN(C(=O)Nc2ccccc2)C1=S
7. Cn1c(I)c(C#C[Si](C)(C)C)c(=O)n(C(=O)c2ccccc2)c1=O
8. c1ccc2c(c1)[nH]c1c2nc2ccccn21

Output:
["> 100 µM", "16.8 µM", "> 100 µM", "76.9 µM", "> 100 µM", "70.5 µM", "21.7 µM", "> 100 µM"]

Look up TGI for the entries below, preserving their order.
1. Cn1c(=O)oc2cc(C3CCC(=O)N3Cc3csc(-c4ccccc4)n3)ccc21 (stereo unspecified)
2. Cc1n[nH]c2ccccc2c1=O
3. N/N=C(/Cc1ccccc1)NNO
4. C=C1C(=O)O[C@@H]2/C=C(/C)[C@@H](OC(C)=O)C/C=C(\C)C(O)[C@@H](OC(=O)/C(C)=C\C)C12 (stereo partly specified)
5. N#CCCC(C=O)(CCC#N)CCC#N
6. Cn1c(COC(=O)NCCn2ccnc2)nc2c(N3CCOCC3)nc(-c3ccccc3)nc21
7. O=C1c2cc3c(cc2-c2c1c1cc(F)c(F)cc1c(=O)n2CCCn1ccnc1)OCO3

Output:
["> 100 µM", "> 100 µM", "> 100 µM", "> 100 µM", "> 100 µM", "3.6 µM", "0.115 µM"]
